# ASSAY: Efflux ratio of permeability from basolateral to apical over apical to basolateral side of MDCK cells expressing MDR1
# Assay type: ADME, cell-based, Canis lupus familiaris
# SETTINGS: dog

| SMILES REPRESENTATION | efflux ratio |
| --- | --- |
| CCn1nc(C(C)(C)C)cc1Nc1nc(-c2ccc(-n3cnc(C)c3)c(F)c2)cs1 | 1.6 |

---

# ASSAY: Kinetic solubility in PBS buffer at pH 7.4 by UV/vis absorbance analysis
# Format: physicochemical
# SETTINGS: read-out: Kinetic_solubility
# reported solubility kinetic; entries follow

| SMILES REPRESENTATION | solubility kinetic |
| --- | --- |
| Cc1cn(-c2ccc(-c3csc(Nc4cc(C(C)(C)C)nn4CC(F)(F)F)n3)cc2F)cn1 | < 1.6 µM |
| Cc1cn(-c2ccc(-c3csc(Nc4c5c(nn4CCCN4CCOCC4)CCCC5)n3)cc2F)cn1 | 16 µM |
| CCn1nc(C(C)(C)C)cc1Nc1nc(-c2ccc(-n3cnc(C)c3)c(F)c2)cs1 | 4.7 µM |
| Cc1cn(-c2ccc(-c3csc(Nc4c5c(nn4C4CCC4)CCCC5)n3)cc2F)cn1 | < 1.6 µM |
| Cc1cn(-c2ccc(-c3csc(Nc4c5c(nn4C4CCN(C)CC4)CCCC5)n3)cc2F)cn1 | 2.8 µM |
| Cc1cn(-c2ccc(-c3csc(Nc4c5c(nn4CC(C)(C)O)CCCC5)n3)cc2F)cn1 | < 1.6 µM |
| Cc1cn(-c2ccc(-c3csc(Nc4c5c(nn4CCO)CCC5)n3)cc2F)cn1 | < 1.6 µM |
| Cc1cn(-c2ccc(-c3csc(Nc4c5c(nn4C4CCC4)CCC5)n3)cc2F)cn1 | < 1.6 µM |
| CCn1nc2c(c1Nc1nc(-c3ccc(-n4cnc(C)c4)c(F)c3)cs1)CCC2 | < 1.6 µM |
| CCn1nc(C2(C)CC2)cc1Nc1nc(-c2ccc(-n3cnc(C)c3)c(F)c2)cs1 | < 1.6 µM |
| Cc1cn(-c2ccc(-c3csc(Nc4c5c(nn4C(C)C)CCC5)n3)cc2F)cn1 | < 1.6 µM |

---

# STUDY SYSTEM: UniProtKB P05177
# Sequence (P05177 whole entry): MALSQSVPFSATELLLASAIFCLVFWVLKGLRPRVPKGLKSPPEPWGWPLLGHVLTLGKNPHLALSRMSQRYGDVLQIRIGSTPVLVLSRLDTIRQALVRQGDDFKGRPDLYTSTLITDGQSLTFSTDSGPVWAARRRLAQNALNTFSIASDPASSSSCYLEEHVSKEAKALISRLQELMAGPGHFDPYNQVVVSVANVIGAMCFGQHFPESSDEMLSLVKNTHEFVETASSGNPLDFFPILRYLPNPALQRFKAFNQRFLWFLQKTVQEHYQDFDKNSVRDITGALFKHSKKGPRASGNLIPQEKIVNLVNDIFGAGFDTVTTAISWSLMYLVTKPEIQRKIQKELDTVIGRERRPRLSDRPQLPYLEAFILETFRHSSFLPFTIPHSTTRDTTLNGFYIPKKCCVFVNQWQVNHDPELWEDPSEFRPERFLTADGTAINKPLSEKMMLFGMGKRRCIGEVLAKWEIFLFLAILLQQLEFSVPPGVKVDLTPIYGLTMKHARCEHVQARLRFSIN
# ASSAY: Inhibition of recombinant CYP1A2 (unknown origin) by fluorescence-based assay
# Assay type: ADME
pIC50: −log10 of the molar value.

| SMILES REPRESENTATION | pIC50 |
| --- | --- |
| CCn1nc(C(C)(C)C)cc1Nc1nc(-c2ccc(-n3cnc(C)c3)c(F)c2)cs1 | < 4.00 |

---

# STUDY SYSTEM: UniProt:P10635
# Sequence (P10635 whole entry): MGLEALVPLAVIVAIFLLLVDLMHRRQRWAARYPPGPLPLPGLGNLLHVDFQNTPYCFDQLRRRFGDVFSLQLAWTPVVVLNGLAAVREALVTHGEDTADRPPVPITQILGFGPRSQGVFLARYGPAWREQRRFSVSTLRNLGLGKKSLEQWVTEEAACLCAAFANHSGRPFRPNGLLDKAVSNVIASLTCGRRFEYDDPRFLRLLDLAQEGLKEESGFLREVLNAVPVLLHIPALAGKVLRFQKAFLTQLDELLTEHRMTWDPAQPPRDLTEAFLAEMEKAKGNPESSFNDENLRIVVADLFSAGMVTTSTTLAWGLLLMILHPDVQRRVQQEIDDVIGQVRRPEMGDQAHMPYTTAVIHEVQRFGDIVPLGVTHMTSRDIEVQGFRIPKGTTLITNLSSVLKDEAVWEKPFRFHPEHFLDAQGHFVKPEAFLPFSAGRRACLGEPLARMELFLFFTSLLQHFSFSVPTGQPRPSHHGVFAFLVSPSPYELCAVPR
# ASSAY: Inhibition of recombinant CYP2D6 (unknown origin) by fluorescence-based assay
pIC50: −log10 of the molar value.
MEASURED ATTRIBUTE: pIC50

| SMILES REPRESENTATION | STUDY SYSTEM | EXPERIMENTAL RESULT |
| --- | --- | --- |
| CCn1nc(C(C)(C)C)cc1Nc1nc(-c2ccc(-n3cnc(C)c3)c(F)c2)cs1 | UniProt:P10635 | < 4.00 |

---

# ASSAY: Ratio of drug level in brain to plasma in CD1 mouse at 5 mg/kg administered via oral gavage measured after 8 hrs by HPLC/MS/MS analysis
# Format: ADME, organism-based
# SETTINGS: read-out: BPR

| SMILES REPRESENTATION | Kp at 8 h |
| --- | --- |
| CCn1nc(C(C)(C)C)cc1Nc1nc(-c2ccc(-n3cnc(C)c3)c(F)c2)cs1 | 0.59 |

---

# ASSAY: Ratio of drug level in brain to plasma in CD1 mouse at 5 mg/kg administered via oral gavage by HPLC/MS/MS analysis
# Type: ADME, organism-based
# SETTINGS: read-out: BPR

| SMILES REPRESENTATION | Kp |
| --- | --- |
| CCn1nc(C(C)(C)C)cc1Nc1nc(-c2ccc(-n3cnc(C)c3)c(F)c2)cs1 | 0.5 |

---

# ASSAY: Kinetic solubility in PBS buffer at pH 7.4 by UV/vis absorbance analysis
# Assay type: physicochemical
# SETTINGS: read-out: Kinetic_solubility
Label fulfilled when solubility kinetic is at or above 3 µM; otherwise label not fulfilled.

| MOLECULE | CATEGORY LABEL |
| --- | --- |
| COCCn1nc2c(c1Nc1nc(-c3ccc(-n4cnc(C)c4)c(F)c3)cs1)CCCC2 | not fulfilled |
| CCn1nc(C(F)(F)F)cc1Nc1nc(-c2ccc(-n3cnc(C)c3)c(F)c2)cs1 | not fulfilled |
| Cc1cn(-c2ccc(-c3csc(Nc4c5c(nn4CCO)CCCC5)n3)cc2F)cn1 | fulfilled |
| Cc1cn(-c2ccc(-c3csc(Nc4cc(C(C)(C)C)nn4C(C)(C)C)n3)cc2F)cn1 | not fulfilled |
| CCCn1nc(C(C)(C)C)cc1Nc1nc(-c2ccc(-n3cnc(C)c3)c(F)c2)cs1 | not fulfilled |
| CCn1nc2c(c1Nc1nc(-c3ccc(-n4cnc(C)c4)c(F)c3)cs1)C(C)CC2(C)C (centres undefined) | not fulfilled |
| CCn1nc2c(c1Nc1nc(-c3ccc(-n4cnc(C)c4)c(F)c3)cs1)CCC2(C)C | not fulfilled |
| Cc1cn(-c2ccc(-c3csc(Nc4c5c(nn4CCN4CCCCC4)CCCC5)n3)cc2F)cn1 | fulfilled |
| Cc1cn(-c2ccc(-c3csc(Nc4c5c(nn4CC(F)(F)F)CCC5)n3)cc2F)cn1 | not fulfilled |

---

# ASSAY: Tmax in CD1 mouse at 1 mg/kg, iv administered as single dose by HPLC/MS/MS analysis
# Assay type: ADME, organism-based
# SETTINGS: in vivo

| SMILES REPRESENTATION | Tmax, min |
| --- | --- |
| CCn1nc(C(C)(C)C)cc1Nc1nc(-c2ccc(-n3cnc(C)c3)c(F)c2)cs1 | 4.98 |

---

# STUDY SYSTEM: Gamma-secretase
# ASSAY: Modulation of gamma-secretase in human SH-SY5Y cells overexpressing wild-type human APP751 assessed as inhibition of Abeta42 level after 24 hrs by ELISA
MEASURED ATTRIBUTE: IC50 (nM)

| SMILES REPRESENTATION | MEASURED ATTRIBUTE | QUALIFIER SIGN | EXPERIMENTAL RESULT |
| --- | --- | --- | --- |
| CCn1nc(C2(C)CC2)cc1Nc1nc(-c2ccc(-n3cnc(C)c3)c(F)c2)cs1 | IC50 | = | 67 |
| Cc1cn(-c2ccc(-c3csc(Nc4cc(C(C)(C)C)nn4CC(F)(F)F)n3)cc2F)cn1 | IC50 | = | 87 |
| Cc1cn(-c2ccc(-c3csc(Nc4c5c(nn4C4CCN(C)CC4)CCCC5)n3)cc2F)cn1 | IC50 | > | 1000 |
| Cc1cn(-c2ccc(-c3csc(Nc4c5c(nn4CCCO)CCCC5)n3)cc2F)cn1 | IC50 | = | 229 |
| CCCn1nc2c(c1Nc1nc(-c3ccc(-n4cnc(C)c4)c(F)c3)cs1)CCCC2 | IC50 | = | 148 |

---

# ASSAY: Lipophilicity, log D of the compound
# Format: physicochemical
# SETTINGS: octanol/water

| SMILES REPRESENTATION | logD |
| --- | --- |
| CCn1nc(C(C)(C)C)cc1Nc1nc(-c2ccc(-n3cnc(C)c3)c(F)c2)cs1 | 3.64 |

---

# ASSAY: AUC (last) in CD1 mouse at 5 mg/kg administered via oral gavage by HPLC/MS/MS analysis
# Type: ADME, organism-based
# Set-up: dose 5 mg/kg, time 0 - last, route oral
# SETTINGS: in vivo

| SMILES REPRESENTATION | AUC(0-t) / ng·h/mL |
| --- | --- |
| CCn1nc(C(C)(C)C)cc1Nc1nc(-c2ccc(-n3cnc(C)c3)c(F)c2)cs1 | 5390 |

---

# ASSAY: AUC (infinity) in CD1 mouse at 1 mg/kg, iv administered as single dose by HPLC/MS/MS analysis
# Type: ADME, organism-based
# Set-up: dose 1 mg/kg, route intravenous, time infinity
# SETTINGS: in vivo

| SMILES REPRESENTATION | AUC(0-inf) [ng·h/mL] |
| --- | --- |
| CCn1nc(C(C)(C)C)cc1Nc1nc(-c2ccc(-n3cnc(C)c3)c(F)c2)cs1 | 498 |

---

# ASSAY: AUC (last) in CD1 mouse at 1 mg/kg, iv administered as single dose by HPLC/MS/MS analysis
# Type: ADME, organism-based
# Set-up: dose 1 mg/kg, time 0 - last, route intravenous
# SETTINGS: in vivo
MEASURED ATTRIBUTE: AUC(0-t) (ng·h/mL)

| SMILES REPRESENTATION | MEASURED ATTRIBUTE | RESULT UNIT | EXPERIMENTAL RESULT |
| --- | --- | --- | --- |
| CCn1nc(C(C)(C)C)cc1Nc1nc(-c2ccc(-n3cnc(C)c3)c(F)c2)cs1 | AUC(0-t) | ng·h/mL | 335 |
